Reported DC50 is given for each of the following compounds.
- Study System: HPK1 (Homo sapiens)
- Construct: A HiBiT tag was introduced by CRISPR on the N terminus of HPK1 in Jurkat cells; host or cells: Jurkat cells (ATCC TIB-152), monoclonal line with CRISPR knock-in of HiBiT at the endogenous HPK1 locus
- Method: HPK1 Cellular HiBit Degradation Assay
- Format: cell-based
- Experimental Setup: HiBiT HPK1 Jurkat cells, 24 hrs; concentration at which 50% of HPK1 was remaining; read-out: DC50 Category

* CC(C)n1cnc2cc(-c3ccc4c(c3)N([C@H]3C[C@@H](N5CCCCC5)C3)C(=O)C43CCN(C(=O)C4(C)CCN(C(=O)C5CCN(c6ccc([C@H]7CCC(=O)NC7=O)cn6)CC5)CC4)CC3)nc(NC3CC3)c21 (single isomer, unassigned) [Example 212] | < 100 nM

Bench note, HPK1 (Homo sapiens): CC(C)n1cnc2cc(-c3ccc4c(c3)N([C@H]3C[C@@H](N5CCCCC5)C3)C(=O)C43CCN(C(=O)C4(C)CCN(C(=O)C5CCN(c6ccc(C7CCC(=O)NC7=O)cn6)CC5)CC4)CC3)nc(N3CC(C#N)C3)c21 (some centres unmarked) [Example 175] , DC50 reads < 100 nM

---

- Study System: HPK1 (Homo sapiens, UniProt Q92918)
- Construct: A HiBiT tag was introduced by CRISPR on the N terminus of HPK1 in Jurkat cells; host or cells: Jurkat cells (ATCC TIB-152), monoclonal line with CRISPR knock-in of HiBiT at the endogenous HPK1 locus
- Sequence (Q92918 whole entry): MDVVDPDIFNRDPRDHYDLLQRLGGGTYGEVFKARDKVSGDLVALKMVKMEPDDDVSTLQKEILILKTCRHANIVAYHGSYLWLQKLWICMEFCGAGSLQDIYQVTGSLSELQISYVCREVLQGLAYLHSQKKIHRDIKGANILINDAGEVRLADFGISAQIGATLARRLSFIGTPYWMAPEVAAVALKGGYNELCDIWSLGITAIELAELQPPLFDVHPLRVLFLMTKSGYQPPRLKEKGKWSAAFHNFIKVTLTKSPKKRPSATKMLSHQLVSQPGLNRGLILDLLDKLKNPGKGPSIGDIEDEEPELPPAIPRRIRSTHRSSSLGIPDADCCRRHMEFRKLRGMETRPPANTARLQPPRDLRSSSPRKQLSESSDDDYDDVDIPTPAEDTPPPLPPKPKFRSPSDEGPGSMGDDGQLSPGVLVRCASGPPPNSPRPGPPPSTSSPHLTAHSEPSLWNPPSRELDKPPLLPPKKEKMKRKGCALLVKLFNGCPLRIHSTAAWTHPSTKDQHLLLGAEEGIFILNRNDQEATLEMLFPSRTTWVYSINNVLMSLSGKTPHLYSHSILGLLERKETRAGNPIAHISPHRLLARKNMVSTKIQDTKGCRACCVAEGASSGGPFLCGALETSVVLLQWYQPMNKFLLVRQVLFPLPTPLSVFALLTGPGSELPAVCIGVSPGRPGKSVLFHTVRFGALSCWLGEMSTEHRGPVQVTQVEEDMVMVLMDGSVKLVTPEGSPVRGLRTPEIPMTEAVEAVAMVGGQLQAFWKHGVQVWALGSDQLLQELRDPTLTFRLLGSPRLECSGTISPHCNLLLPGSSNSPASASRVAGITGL
- Method: HPK1 Cellular HiBit Degradation Assay
- Format: cell-based
- Experimental Setup: HiBiT HPK1 Jurkat cells, 24 hrs; concentration at which 50% of HPK1 was remaining; read-out: DC50 Category
Reported DC50 is given for each of the following molecules.

The examples below pair each entry with its known result.
- CC(C)n1cnc2cc(-c3ccc4c(c3)N([C@H]3C[C@@H](N5CCCCC5)C3)C(=O)C43CCN(C(=O)c4ccc(C(=O)N5CCN(c6ccc7c(c6)C(=O)N(C6CCC(=O)NC6=O)C7=O)CC5)nc4)CC3)nc(Nc3ccccc3F)c21 (mixture of isomers) [Example 45]: 100 to 500 nM
- CC(C)n1cnc2cc(-c3ccc4c(c3)N([C@H]3C[C@@H](N5CCCCC5)C3)C(=O)C43CCN(C(=O)C(C)(C)N4CCN(C(=O)C5CCN(c6ccc(C7CCC(=O)NC7=O)cn6)CC5)CC4)CC3)nc(NC3CC3)c21 (mixture of isomers) [Example 188]: < 100 nM
- CC(C)n1cnc2cc(-c3ccc4c(c3)N([C@H]3C[C@@H](N5CCCCC5)C3)C(=O)C43CCN(C(=O)C4(O)CCN(C(=O)C5CCN(c6ccc(C7CCC(=O)NC7=O)cc6)CC5)CC4)CC3)nc(NC3CC3)c21 (mixture of isomers) [Example 274]: < 100 nM

Could you now look at the following molecule, please?
The value of DC50 measured for the molecule CC(C)n1cnc2cc(-c3ccc4c(c3)N([C@H]3C[C@@H](N5CCCCC5)C3)C(=O)C43CCN(C(=O)C4(C)CCN(C(=O)[C@H]5CC[C@H](Oc6ccc(C7CCC(=O)NC7=O)cn6)CC5)CC4)CC3)nc(Nc3ccncc3F)c21 (mixture of isomers) [Example 106] turned out to be < 100 nM

---

- Study System: HPK1 (Homo sapiens)
- Construct: A HiBiT tag was introduced by CRISPR on the N terminus of HPK1 in Jurkat cells; host or cells: Jurkat cells (ATCC TIB-152), monoclonal line with CRISPR knock-in of HiBiT at the endogenous HPK1 locus
- Method: HPK1 Cellular HiBit Degradation Assay
- Assay type: cell-based
- Experimental Setup: HiBiT HPK1 Jurkat cells, 24 hrs; concentration at which 50% of HPK1 was remaining; read-out: DC50 Category
Reported DC50 is given for each of the following compounds.

The examples below pair each entry with its known result.
* CC(C)n1cnc2cc(-c3ccc4c(c3)N([C@H]3C[C@@H](N5CCCCC5)C3)C(=O)C43CCN(C(=O)C4C5CN(C(=O)C6CCN(c7ccc(C8CCC(=O)NC8=O)cn7)CC6)CC54)CC3)nc(NC3CC3)c21 (mixture of isomers) | 100 to 500 nM
* CC(C)n1cnc2cc(-c3ccc4c(c3)N([C@H]3C[C@@H](N5CCCCC5)C3)C(=O)C43CCN(C(=O)[C@@H]4CCN(C(=O)[C@H]5CC[C@H](Oc6ccc(C7CCC(=O)NC7=O)cc6)CC5)C4)CC3)nc(Nc3ccccc3F)c21 (some centres unmarked) | < 100 nM
* CC(C)n1cnc2cc(-c3ccc4c(c3)N([C@H]3C[C@@H](N5CCCCC5)C3)C(=O)C43CCN(C(=O)C4(C)CCN(C(=O)C5CCN(c6ccc(N7CCC(=O)NC7=O)cn6)CC5)CC4)CC3)nc(Nc3ccccc3F)c21 | < 100 nM
* CC(C)n1cnc2cc(-c3ccc4c(c3)N([C@H]3C[C@@H](N5CCCCC5)C3)C(=O)C43CCN(C(=O)[C@@H]4CCN(C(=O)[C@H]5CC[C@H](Oc6ccc(C7CCC(=O)NC7=O)cn6)CC5)C4)CC3)nc(NC3CC3)c21 (mixture of isomers) | 500 to 1000 nM
* CC(C)n1cnc2cc(-c3ccc4c(c3)N([C@H]3C[C@@H](N5CCCCC5)C3)C(=O)C43CCN(C(=O)C4(F)CCCN(C(=O)C5CCN(c6ccc(C7CCC(=O)NC7=O)cn6)CC5)C4)CC3)nc(NC3CC3)c21 (mixture of isomers) | < 100 nM
* CC(C)n1cnc2cc(-c3ccc4c(c3)N([C@H]3C[C@@H](N5CCCCC5)C3)C(=O)C43CCN(C(=O)[C@@H]4CCN(C(=O)[C@H]5CC[C@H](Oc6ccc(N7CCC(=O)NC7=O)cn6)CC5)C4)CC3)nc(Nc3ccncc3F)c21 | < 100 nM
* CC(C)n1cnc2cc(-c3ccc4c(c3)N([C@H]3C[C@@H](N5CCCCC5)C3)C(=O)C43CCN(C(=O)C4(C)CCN(C(=O)C5CCN(c6ccc(C7CCC(=O)NC7=O)nc6)CC5)CC4)CC3)nc(NC3CC3)c21 (mixture of isomers) | < 100 nM

Could you now look at the following compound, please?
The value of DC50 measured for the compound Cc1cc(F)c(Nc2nc(-c3ccc4c(c3)N([C@H]3C[C@@H](N5CCCCC5)C3)C(=O)C43CCN(C(=O)C4CCN(CC5CCN(c6cccc7c6n(C)c(=O)n7C6CCC(=O)NC6=O)CC5)CC4)CC3)cc3ncn(C(C)C)c23)cc1C(=O)NC(C)C (mixture of isomers) turned out to be 500 to 1000 nM

---

- Study System: HPK1 (Homo sapiens)
- Construct: A HiBiT tag was introduced by CRISPR on the N terminus of HPK1 in Jurkat cells; host or cells: Jurkat cells (ATCC TIB-152), monoclonal line with CRISPR knock-in of HiBiT at the endogenous HPK1 locus
- Method: HPK1 Cellular HiBit Degradation Assay
- Assay type: cell-based
- Experimental Setup: HiBiT HPK1 Jurkat cells, 24 hrs; concentration at which 50% of HPK1 was remaining; read-out: DC50 Category
- Description: HPK1 Cellular HiBit Degradation Assay A HiBiT tag was introduced by CRISPR on the N terminus of HPK1 in Jurkat cells (ATCC® TIB-152) to allow quantitation of HPK1 protein levels in a monoclonal human cell line. […] Cells were incubated for 10 min at room temperature and luminescence was read on an EnVision plate reader (Perkin Elmer, 0.1 sec per well). […] Percent HPK1 remaining per sample was calculated as follows: […]
Endpoint: DC50

The examples below pair each entry with its known result.
- CC(C)n1cnc2cc(-c3ccc4c(c3)N([C@H]3C[C@@H](N5CCCCC5)C3)C(=O)C43CCN(C(=O)[C@H]4CC[C@H](C(=O)N5CCC(N(C)c6ccc(C7CCC(=O)NC7=O)cn6)CC5)CC4)CC3)nc(Nc3ccccc3F)c21 (mixture of isomers): < 100 nM
- CC(C)n1cnc2cc(-c3ccc4c(c3)N([C@H]3C[C@@H](N5CCCCC5)C3)C(=O)C43CCN(C(=O)c4ccc(C(=O)NC5CCN(c6ccc7c(c6)C(=O)N(C6CCC(=O)NC6=O)C7=O)CC5)cc4)CC3)nc(NC3CC3)c21 (mixture of isomers) [Example 44]: 500 to 1000 nM
- CC(C)n1cnc2cc(-c3ccc4c(c3)N([C@H]3C[C@@H](N5CCC[C@@H](F)C5)C3)C(=O)C43CCN(C(=O)C4(C)CCN(C(=O)C5CCN(c6ccc(C7CCC(=O)NC7=O)cc6)CC5)CC4)CC3)nc(NC3CC3)c21 (mixture of isomers): 100 to 500 nM
- CC(C)n1cnc2cc(-c3ccc4c(c3)N([C@H]3C[C@@H](N5CCCCC5)C3)C(=O)C43CCN(C(=O)C4(C)CCN(C(=O)[C@H]5CC[C@H](Oc6ccc(C7CCC(=O)NC7=O)cc6)CC5)CC4)CC3)nc(Nc3ccccc3F)c21 (mixture of isomers): < 100 nM
- CC(C)n1cnc2cc(-c3ccc4c(c3)N([C@H]3C[C@@H](N5CCCCC5)C3)C(=O)C43CCN(C(=O)C4CCN(C(=O)C5CCN(c6ncc(C7CCC(=O)NC7=O)cn6)CC5)CC4)CC3)nc(Nc3ccccc3F)c21 (some centres unmarked): < 100 nM
- CC(C)n1cnc2cc(-c3ccc4c(c3)N([C@H]3C[C@@H](N5CCCCC5)C3)C(=O)C43CCN(C(=O)[C@@H]4CCN(C(=O)[C@H]5CC[C@H](Oc6ccc(N7CCC(=O)NC7=O)cn6)CC5)C4)CC3)nc(NC3CC3)c21: < 100 nM
- CC(C)Oc1nc(-c2ccc3c(c2)N([C@H]2C[C@@H](N4CCCCC4)C2)C(=O)C32CCN(C(=O)C3(C)CCN(C(=O)C4CCN(c5ccc(C6CCC(=O)NC6=O)cn5)CC4)CC3)CC2)cc2ncn(C(C)C)c12 (some centres unmarked): < 100 nM

Could you now look at the following compound, please?
The value of DC50 measured for the compound CC(C)n1cnc2cc(-c3ccc4c(c3)N([C@H]3C[C@@H](N5CCCCC5)C3)C(=O)C43CCN(C(=O)c4ccc(C(=O)NC5CCN(c6ccc7c(c6)C(=O)N(C6CCC(=O)NC6=O)C7=O)CC5)cc4)CC3)nc(NC3CC3)c21 (mixture of isomers) [Example 43] turned out to be 500 to 1000 nM
